Listing of recorded GI50 by entry.
- Test system: A549
- Assay procedure: NCI tumour cell line growth inhibition, 48 h
Calls of active or inactive are those of the source. Rule as the data show it: active = GI50 up to about 1.1 µM and inactive = higher. Non-standard residues stand in square brackets, D forms with d. Residues, ends and D or L forms follow the SMILES beside them. ξ: configuration not given here. *: point of attachment. ξF = NC(Cc1ccccc1)C(=O)O; Cbz = O=C(OCc1ccccc1)*; Aib = CC(C)(N)C(=O)O

Completed entries (count: 8):
CC1(C)O[C@H]2OC3CCC(=O)CC3(O)[C@H]2O1 (some centres undefined) ... > 100 µM (inactive)
CCOc1ccc(/N=N/S(=O)(=O)O)cc1 ... > 100 µM (inactive)
Cc1ccc(NC(=O)/C(Cc2cc(=O)oc3cc(O)ccc23)=N\NC(C)(C)C)cc1C ... > 100 µM (inactive)
CCOC(=O)CNC(=O)C(Cc1ccccc1)NC(=O)C(C)(C)NC(=O)OCc1ccccc1 (centres undefined) (Cbz-[Aib]-[ξF]-Gly-OEt) ... > 100 µM (inactive)
CSCCCNC(=O)c1csc(-c2csc(CCNC(=O)CNC(=O)CNC(=O)OC(C)(C)C)n2)n1 ... > 100 µM (inactive)
N#Cc1c(C[n+]2ccccc2)c2ccccc2oc1=O ... > 100 µM (inactive)
C=C1C(=O)CC2C(=O)C(C)(O)CC/C=C(\C)C(=O)CC12 (centres undefined) ... 60.1 µM (inactive)
OC(NN=C1CCCC1)(C(F)(F)Cl)C(F)(F)Cl ... > 10 µM (inactive)

Measured on A549, COC(=O)CCc1ccc2c(c1)CC1(C2)Cc2ccc(CCC(=O)OC)cc2C1 has a documented GI50 of > 100 µM (inactive)

###

- System: T47D
- Assay procedure: NCI tumour cell line growth inhibition, 48 h
Active and inactive are the calls of the source. Rule as the data show it: active = GI50 up to about 1.1 µM and inactive = higher.
Hi! Could you answer with just one of these? label 1 for active, label 0 for inactive

Consider the worked cases shown below.
NNC(=O)Nc1cccnc1 ... label 0
CC1=CCC[C@H]2[C@](C)(CC3=CC(=O)C4SCCSC4C3=O)[C@@H](C)CC[C@]12C (stereo partly specified) ... label 0
Clc1ccc(-c2nnc(-c3c(Cl)c(Cl)c(Cl)c(Cl)c3-c3nc4ccccc4[nH]3)o2)cc1 ... label 0
COC(=O)C1=CC(=O)OC1(OO)c1ccccc1 (stereo unspecified) ... label 0
CCCCc1ccc(Nc2nc(OC)c3ncn(C4CC(O)C(CO)O4)c3n2)cc1 (stereo unspecified) ... label 0
COc1ccc(N2NC(c3ccccc3)(c3ccccc3)C(C)C2=O)cc1 (stereo unspecified) ... label 0
CCn1cc(C(=O)O)c(=O)c2ccc(C)nc21 [NALIDIXIC ACID] ... label 0
OC(NN=C1CCCC1)(C(F)(F)Cl)C(F)(F)Cl ... label 0
CCOC(=O)C1(CC(=O)O)CCCC1=O (stereo unspecified) ... label 0
O=C1/C(=C\c2cccc(Oc3ccccc3)c2)S(=O)(=O)C(c2ccccc2)N1c1cccc(Cl)c1 (stereo unspecified) ... label 0

# outcome recorded in this test, key = O=c1oc2ccccc2cc1-c1nc2ccc([N+](=O)[O-])cc2o1 label 0

Test call for this compound, please: COc1nc2c(c(=O)n1C)N[C@H]1[C@H](OC(C)=O)[C@@H](OC(C)=O)CO[C@H]1N2 label 0

For c1ccc2c(c1)C(=Nc1ccc(N=C3c4ccccc4-c4ccccc43)cc1)c1ccccc1-2 , which call appears in the assay record? label 0

For CC(=O)NC(CSC1=C2NC(=O)\C=C/C=C\C=C/C(C)C(O)CC(=O)/C(C)=C\CC(O)/C=C\C(C)C(O)C(C)C=C(C)C(=O)c3c(O)c(C)cc(c3C1=O)C2=O)C(=O)O (stereo unspecified) , which call appears in the assay record? label 0

// param item: Clc1ccc2[nH]c(CC3CCCC3)nc2c1 ; yields the recorded call label 0

Which outcome was entered for the compound O=c1[nH]c(=O)n(C2OC(CO)C(O)C2O)c2nc(-c3ccc(-c4ccccc4)cc3)cnc12 (stereo unspecified) in this test? label 0

What did the test return for CCc1n[nH]c(=O)n1N1C(=O)C2CC=CCC2C1=O (stereo unspecified) ? label 0

Give the logged outcome of this assay for the following compound: C=C1COC(O)(C2OCOC(C3CC(=O)NC(=O)C3)C2O)C1C (stereo unspecified) label 1

Could you kindly confirm the outcome this assay logged for O=C1c2[nH]c3ccc(Br)cc3c2CCN1Cc1ccc(Cl)cc1 ? label 0

Dear all, I need the recorded test outcome for O=C(Cc1ccc2ccccc2c1)NCc1ccc(C(=O)NCCc2ccccc2)cc1 , thank you. label 0

Record request — test call for O=C1CCCC1CN1CCCC1 (stereo unspecified) label 0

Fill in: this test's call for COC(=O)[C@]1(C)[C@H]2C[C@H]3O[C@H]4[C@H](O)[C@@H](O)OC(CC(O)C(C5=CC(=O)OC5)C(C5=CC(=O)OC5)C(O)CC56CCCCC7[C@@H](C)[C@H](C[C@H]8[C@](C)(C(=O)OC)[C@H](O)CC[C@]78C)O[C@H]([C@@H](O)[C@H](O)O5)[C@H]6O)(CCCCC([C@@H]3C)[C@]2(C)CC[C@@H]1O)[C@H]4O (stereo partly specified) is ___ label 1
